z-scoreMRSA+ rep 1 overview
Tested on: intracellular MRSA
Type: cell-based, Staphylococcus aureus
Settings: PKIS compound screen, MRSA-infected HeLa cells, replicate 1

Input: Which z-scoreMRSA+ rep 1 value belongs to COc1cc2ncn(-c3cc(OCc4ccccc4C(F)(F)F)c(C(=O)N(C)C)s3)c2cc1OC [GSK1030062A] ?
Output: -0.18

Input: // query: Cc1cnc(N)c(/C=C/c2cncc(C(=O)NCCc3ccc(Cl)cc3Cl)c2)c1 [GSK190937A]
Output: -0.18

Input: Another molecule to check: O=C1Nc2ccc(C(=O)c3ccco3)cc2C1=Cc1cc(Cl)c(O)c(Cl)c1 [GW406108X]
Output: 0.39

Input: Field entry: CCOc1ccc2c(-c3ccnc(Nc4cccc(C(F)(F)F)c4)n3)cnn2n1 [GW811761X]
Output: -0.34

Input: What would you report for COc1ccccc1C1=C(Nc2ccc(O)c(Cl)c2)C(=O)NC1=O [SB-381904] ?
Output: -0.30

Input: Record: COc1cc(Nc2nccc(N3CCC(NC(=O)C(C)c4ccc(Cl)cc4)C3)n2)cc(OC)c1OC (centres unmarked) [GSK1379757A]
Output: 1.45

Input: Would you mind doing Fc1ccc(-c2ncn(C3CCNCC3)c2-c2ccnc(Oc3cccc(F)c3)n2)cc1 [SB-251505] as well?
Output: -0.91

* * *

System: HeLa cells
Test: Compound screen by flow cytometry: HeLa cell count as surrogate readout of cell viability (z-scoreHeLa)
Type: cell-based, human
Details: PKIS compound screen raw data, HeLa cell count, replicate 3
# label = 1.0 if cell count rep 3 >= 20000 else 0.0

{"COMPOUND": "Cc1cc(NCC(c2ccccc2)c2ccccc2)nc(NCc2ccc(C(F)(F)F)cc2)n1 [GW497681X]", "CLASS LABEL": 0.0}
{"COMPOUND": "COc1cccc(NC(=O)NC2CCN(c3ccnc(Nc4cc(OC)c(OC)c(OC)c4)n3)C2)c1 (stereo not shown) [GSK1379763A]", "CLASS LABEL": 1.0}
{"COMPOUND": "CC(C)c1nc(-c2cccc(NS(=O)(=O)c3c(F)cccc3F)c2)c(-c2ccnc(Nc3ccc(N4CCOCC4)nc3)n2)s1 [GSK1723980B]", "CLASS LABEL": 0.0}

Input: Does the compound O=C(O[C@H]1CN[C@H](C#Cc2cc3ncnc(Nc4ccc5c(cnn5Cc5ccccc5)c4)c3s2)C1)N1CCOCC1 [GSK200398A] have recorded cell count rep 3 that is 20000 or more?
Output: 1.0

Input: Try this compound too: COC(=O)c1cccc(NC(=O)NC2CCN(c3ccnc(NCc4ccc(F)cc4)n3)CC2)c1 [GSK1379860A]
Output: 0.0

Input: Similarly, Fc1cc(Cl)ccc1Nc1ccnc2cc(-c3ccc(CN4CCCCC4)o3)ccc12 [GW560116X] ?
Output: 0.0

* * *

System: HeLa cells
Test: Compound screen by flow cytometry: HeLa cell count as surrogate readout of cell viability (z-scoreHeLa)
Format: cell-based, human
Conditions: PKIS compounds raw data; replicate 2; HeLa cell count
The threshold is 5000. Values of cell count rep 2 beneath it are tagged YES; values meeting or exceeding it are tagged NO.

Please review the following examples before continuing.
{"MOLECULE": "COc1ccc(S(=O)(=O)NC2CCN(c3cc(C)nc(Nc4cccc(C#N)c4)n3)CC2)cc1 [GSK1653539A]", "CLASS LABEL": "NO"}
{"MOLECULE": "O=C(Nc1n[nH]c2cc(-c3ccccc3)ccc12)C1CC1 [SB-732941]", "CLASS LABEL": "YES"}
{"MOLECULE": "[O-][S+]1CCN(Cc2ccc(-c3ccc4ncnc(Nc5ccc(OCc6ccccc6)c(F)c5)c4c3)o2)CC1 [GW576924A]", "CLASS LABEL": "YES"}
{"MOLECULE": "COc1ccc(CNC(=O)NC2CCN(c3ccnc(Nc4ccc(OC)cc4)n3)C2)cc1 (centres unmarked) [GSK1379727A]", "CLASS LABEL": "NO"}
{"MOLECULE": "COc1ccccc1-c1cc(/C=C2\\C(=O)Nc3ncc(Br)cc32)cc(Br)c1O [GW442130X]", "CLASS LABEL": "YES"}
{"MOLECULE": "O=C(Nc1ccccc1F)NC1CCN(c2ccnc(Nc3ccc(F)cc3)n2)CC1 [GSK1379800A]", "CLASS LABEL": "NO"}
{"MOLECULE": "COc1ccc(Nc2nccc(N3CCC(NC(=O)Nc4cccc(C(C)=O)c4)C3)n2)cc1 (centres unmarked) [GSK1379731A]", "CLASS LABEL": "NO"}
{"MOLECULE": "COc1cc(Nc2nccc(N3CCC(NC(=O)C(C)c4ccc(Cl)cc4)C3)n2)cc(OC)c1OC (centres unmarked) [GSK1379757A]", "CLASS LABEL": "NO"}
{"MOLECULE": "Cc1ccc(S(=O)(=O)Nc2ccc(Nc3nccc(Nc4cccc5[nH]ncc45)n3)cc2)cc1 [GSK581271A]", "CLASS LABEL": "NO"}
{"MOLECULE": "Cc1cn2c(=O)cc(N3CCOCC3)nc2n1Cc1cccc(Cl)c1Cl [GSK2334006A]", "CLASS LABEL": "NO"}

Input: # strict comparison: is reported cell count rep 2 < 5000? input = c1ccc(Cc2nc3ccc(Nc4ncnc5ccccc45)cc3[nH]2)cc1 [GR269666A]
Output: YES

Input: Queued: COC(=O)c1cccc(NC(=O)NC2CCN(c3ccnc(NCc4ccc(F)cc4)n3)CC2)c1 [GSK1379860A]
Output: YES

* * *

System: HeLa cells
Assay: Compound screen by flow cytometry: HeLa cell count as surrogate readout of cell viability (z-scoreHeLa)
Type: cell-based, human
Conditions: PKIS compound screen, HeLa cell count, mean of 3 replicates
Category scheme (z-scoreHeLa mean): class A = under -0.5, class B = from -0.5 up to -0.002, class C = -0.002 and over

Examples with answers:
{"MOLECULE": "COc1ccc(Nc2nccc(N3CCC(NC(=O)c4cc5ccccc5s4)C3)n2)cc1 (centres unmarked) [GSK1379738A]", "TARGET ENTITY": "HeLa cells", "CLASS LABEL": "class C"}
{"MOLECULE": "CCn1c(-c2nonc2N)nc2c(C#CC(C)(C)O)nc(OC[C@@H](N)c3ccccc3)cc21 [GSK938890A]", "TARGET ENTITY": "HeLa cells", "CLASS LABEL": "class B"}

Input: Input "CN1CCC(n2cnc(-c3ccc(F)cc3)c2-c2ccnc(Nc3ccccc3)n2)CC1" ; output its category
Output: class A

Input: Also, CN(C)CCCNc1nccc(-c2c(-c3ccc(F)cc3)nn3cc(C(F)(F)F)ccc23)n1 [GW618013A] please.
Output: class B

Input: And what about the molecule CC(C)c1nc(-c2cccc(NS(=O)(=O)c3ccccc3)c2)c(-c2ccnc(Nc3ccc4c(c3)CN(C)CC4)n2)s1 [GSK1649598A] ?
Output: class B

Input: Next entry: Cc1cc(O)cc(C)c1/C=C/c1cncc(C(N)=O)c1 [GW435821X]
Output: class A

Input: Also COc1cc(C)c(N(C)C(=O)CN(C)C)cc1Nc1nc(Nc2cccc(F)c2C(N)=O)c2cc[nH]c2n1 [GSK2219385A] , if possible.
Output: class A

* * *

Test system: HeLa cells
Assay: Compound screen by flow cytometry: HeLa cell count as surrogate readout of cell viability (z-scoreHeLa)
Assay type: cell-based, human
Conditions: PKIS compounds raw data; replicate 1; HeLa cell count
Description: The cells were resuspended in cell culture medium without antibiotics, seeded with 10,000 cells/well into Costar flat-bottom 96-well plates (Corning, Amsterdam, the Netherlands), and were incubated overnight at 37°C/5% CO2. […] The calculated mean MOI throughout all experiments was 6.8 ± 4.6 (mean ± SD). […] HeLa cells were harvested by trypsinization and fixed with 1% paraformaldehyde. Samples were measured on a FACSLyric with HTS extension (BD Biosciences). […]
cell count rep 1 of 4000 or higher: condition met. Under 4000: condition not met.

{"COMPOUND": "Cc1nn2c(=O)cc(N3CCOCC3)nc2n1Cc1cccc(Cl)c1Cl [GSK2342769A]", "CLASS LABEL": "condition not met"}
{"COMPOUND": "N#Cc1ccc(CCNc2nccc(-c3cccc(CN4CCNCC4)c3)n2)cc1 [GSK2137462A]", "CLASS LABEL": "condition met"}
{"COMPOUND": "CNC(=O)c1cc(-c2ccc(F)cc2)cc(-c2ccc(S(=O)(=O)N3CCCC3)cc2)c1N [GSK635416A]", "CLASS LABEL": "condition met"}

Input: In plain terms: is recorded cell count rep 1 at least 4000 for Nc1ncc(-c2cccc(S(N)(=O)=O)c2)c2scc(-c3ccc(F)c(Cl)c3)c12 [GW856804X] ?
Output: condition met

Input: For CS(=O)(=O)CCN(CC#N)Cc1ccc(-c2ccc3ncnc(Nc4ccc(OCc5cccc(F)c5)c(Cl)c4)c3c2)o1 [GW616030X] then?
Output: condition not met

Input: Next compound up: Cc1cn2c(=O)cc(N3CCOCC3)nc2n1Cc1cccc(Cl)c1Cl [GSK2334006A]
Output: condition met

Input: Would you kindly repeat that for COc1ccc(Nc2nccc(N3CCC(NC(=O)Nc4cccc(C(C)=O)c4)C3)n2)cc1 (stereo not drawn) [GSK1379731A] ?
Output: condition met

Input: Now try CCNC(=O)O[C@H]1CN[C@H](C#Cc2cc3ncnc(Nc4ccc(OCc5cccc(F)c5)c(Cl)c4)c3s2)C1 [GSK192082A] .
Output: condition not met

Input: // repeat for Nc1ncnc2occ(-c3ccc(NC(=O)Nc4cc(C(F)(F)F)ccc4F)cc3)c12 [GW770249X] and report
Output: condition not met
